Values were extracted from patent US8106047B2.

Measured melting point, listed per entry for reference.

Check out these entries, answers already filled in.
compound="COc1ccc(-c2nnc3c4ccccc4c(Nc4ccc(NS(=O)(=O)Cc5ccccc5)cc4)nn23)cc1 [Compound 4]" outcome_measure="melting point" reported="304 to 306 °C"
compound="COc1ccc(-c2nnc3c4ccccc4c(Nc4cccc(NS(=O)(=O)c5cccc(OC)c5)c4)nn23)cc1 [Compound 14]" outcome_measure="melting point" reported="328 to 332 °C"
compound="COc1ccc(-c2nnc3c4ccccc4c(Nc4ccc(NS(=O)(=O)c5cn(C)cn5)cc4)nn23)cc1 [Compound 2]" outcome_measure="melting point" reported="346 to 348 °C"
compound="COc1ccc(-c2nnc3c4ccccc4c(Nc4ccc(-c5nnn(C)n5)cc4)nn23)cc1 [Compound T6]" outcome_measure="melting point" reported="289 to 293 °C"

[Q] Give melting point for COc1ccc(-c2nnc3c4ccccc4c(Nc4ccc(NS(=O)(=O)N5CCOCC5)cc4)nn23)cc1 [Compound 6]
[A] 266 to 270 °C

[Q] Give melting point for CN(C)S(=O)(=O)Nc1cccc(Nc2nn3c(-c4ccccc4F)nnc3c3ccccc23)c1 [Compound 31]
[A] 252 to 256 °C

[Q] Give melting point for COc1ccc(Cc2nnc3c4ccccc4c(Nc4ccc(S(=O)(=O)N5CCCCC5)cc4)nn23)cc1 [Compound 35]
[A] 283 to 285 °C
